Assay: Inhibition of Bacillus anthracis SrtA
pIC50: −log10 of the molar value.

| SMILES_DATA | pIC50 |
| --- | --- |
| CN(C)CCC(=O)c1cccs1 | 5.32 |
| CN(C)CCC(=O)c1ccc(Cl)c(Cl)c1 | 5.25 |
